- Study target: farnesyl pyrophosphate synthase (Trypanosoma cruzi)
- Assay explanation: Inhibitory concentration against Trypanosoma cruzi farnesyl pyrophosphate synthase (TcFPPS)
Exam item: assign fulfilled to entries whose IC50 is below 30 µM and not fulfilled to entries at or above 30 µM. Note that a value of exactly 30 µM receives not fulfilled.

1) CCCCC(N)(P(=O)(O)O)P(=O)(O)O : fulfilled
2) CCC(N)(P(=O)(O)O)P(=O)(O)O : not fulfilled
3) CCCCCCC(N)(P(=O)(O)O)P(=O)(O)O : fulfilled
4) CC(N)(P(=O)(O)O)P(=O)(O)O : not fulfilled
5) CCCCCC(N)(P(=O)(O)O)P(=O)(O)O : fulfilled
